- tested system: human GLP-1 receptor (human, UniProt P43220 24-463)
- test protocol: cell-based or functional assay
measured property: cAMP EC50 (1.0% HSA) (nM)
Answers are plain numbers, in nM.

Solved entries:
binder	unit of measure	cAMP EC50 (1.0% HSA)
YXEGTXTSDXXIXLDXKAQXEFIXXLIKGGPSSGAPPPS (Y-Aib-EGT-αMeF(2F)-TSD-4Pal-Aib-I-αMeL-LD-Orn-K((2-[2-(2-Amino-ethoxy)-ethoxy]-acetyl)2-(γ-Glu)-(10-(4-carboxyphenoxy)decanoyl))AQ-Aib-EFI-(D-Glu)-αMeY-LIK((2-[2-(2-Amino-ethoxy)-ethoxy]-acetyl)2-(γ-Glu)-(10-(4-carboxyphenoxy)decanoyl))GGPSSGAPPPS-NH2) [Example 244]	nM	30.8
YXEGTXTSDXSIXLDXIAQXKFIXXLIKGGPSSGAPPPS (Y-Aib-EGT-αMeF(2F)-TSD-hTyr-SI-αMeL-LD-Orn-IAQ-Aib-K((2-[2-(2-Amino-ethoxy)-ethoxy]-acetyl)2-(γ-Glu)-(10-(4-carboxyphenoxy)decanoyl))FI-(D-Glu)-αMeY-LIK((2-[2-(2-Amino-ethoxy)-ethoxy]-acetyl)2-(γ-Glu)-(10-(4-carboxyphenoxy)decanoyl))GGPSSGAPPPS-NH2) [Example 332]	nM	33.3
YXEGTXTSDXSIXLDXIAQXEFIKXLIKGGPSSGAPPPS (Y-Aib-EGT-αMeF(2F)-TSD-2Nal-SI-αMeL-LD-Orn-IAQ-Aib-EFIK((2-[2-(2-Amino-ethoxy)-ethoxy]-acetyl)2-(γ-Glu)-CO-(CH2)12-CO2H)-αMeY-LIK((2-[2-(2-Amino-ethoxy)-ethoxy]-acetyl)2-(γ-Glu)-CO-(CH2)12-CO2H)GGPSSGAPPPS-NH2) [Example 252]	nM	131
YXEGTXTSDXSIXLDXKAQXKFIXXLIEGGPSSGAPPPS (Y-Aib-EGT-αMeF(2F)-TSD-OMeY-SI-αMeL-LD-Orn-K((2-[2-(2-Amino-ethoxy)-ethoxy]-acetyl)2-(γ-Glu)-CO-(CH2)10-CH3)AQ-Aib-K((2-[2-(2-Amino-ethoxy)-ethoxy]-acetyl)2-(γ-Glu)-CO-(CH2)10-CH3)FI-(D-Glu)-αMeY-LIEGGPSSGAPPPS-NH2) [Example 289]	nM	627
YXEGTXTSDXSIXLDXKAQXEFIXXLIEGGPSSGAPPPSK (Y-Aib-EGT-αMeF(2F)-TSD-4Pal-SI-αMeL-LD-Orn-K((2-[2-(2-Amino-ethoxy)-ethoxy]-acetyl)2-CO-(CH2)12-CO2H)AQ-Aib-EFI-(D-Glu)-αMeY-LIEGGPSSGAPPPSK((2-[2-(2-Amino-ethoxy)-ethoxy]-acetyl)2-CO-(CH2)12-CO2H)-NH2) [Example 221]	nM	17.9

In the following, a different binder is considered.
I have this binder here, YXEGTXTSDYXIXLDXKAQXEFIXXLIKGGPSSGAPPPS (Y-Aib-EGT-αMeF(2F)-TSDY-Aib-I-αMeL-LD-Orn-K((2-[2-(2-Amino-ethoxy)-ethoxy]-acetyl)2-(γ-Glu)-CO-(CH2)10-CH3)AQ-Aib-EFI-(D-Glu)-αMeY-LIK((2-[2-(2-Amino-ethoxy)-ethoxy]-acetyl)2-(γ-Glu)-CO-(CH2)10-CH3)GGPSSGAPPPS-NH2) [Example 301] , and I need its recorded cAMP EC50 (1.0% HSA).
12.9
